The reader will find reported IC50 values listed item by item below.
- Test system: Aβ-40
- testName: Aβ-40 MSD 3-PLEX ELISA, conditioned media of 2B7 cells
- Format: cell-based
- conditionLabel: Homo sapiens; 2B7 cells, 5 hours at 37° C., 1% DMSO; read-out: Aβ 40 IC50
measure: IC50

recordsmiles=CCO[C@@H]([C@H]1C[C@@H](C)[C@H]2[C@H](O1)[C@H](O)[C@@]1(C)[C@@H]3CC[C@H]4C(C)(C)[C@@H](OC(=O)N5CCN(CC(=O)O)CC5)CC[C@@]45C[C@@]35CC[C@]21C)C(C)(C)O measure=IC50 obsvalue="> 5 µM"
recordsmiles=CCO[C@@H]([C@H]1C[C@@H](C)[C@H]2[C@H](O1)[C@H](O)[C@@]1(C)[C@@H]3CC[C@H]4C(C)(C)[C@@H](OC(=O)N5CC(NC)C5)CC[C@@]45C[C@@]35CC[C@]21C)C(C)(C)O measure=IC50 obsvalue="1 to 5 µM"

* * *

The reader will find reported IC50 values listed item by item below.
- System: Aβ-40
- testName: Aβ-40 MSD 3-PLEX ELISA, conditioned media of 2B7 cells
- Format: cell-based
- conditionLabel: Homo sapiens; 2B7 cells, 5 hours at 37° C., 1% DMSO; read-out: Aβ 40 IC50
measure: IC50

recordsmiles=CCO[C@@H]([C@H]1C[C@@H](C)[C@H]2[C@H](O1)[C@H](O)[C@@]1(C)[C@@H]3CC[C@H]4C(C)(C)[C@@H](OC(=O)NCCN5CCN(C6COC6)CC5)CC[C@@]45C[C@@]35CC[C@]21C)C(C)(C)O obsvalue="1 to 5 µM"
recordsmiles=CCO[C@@H]([C@H]1C[C@@H](C)[C@H]2[C@H](O1)[C@H](O)[C@@]1(C)[C@@H]3CC[C@H]4C(C)(C)[C@@H](OC(=O)NC5CN(C6CCC6)C5)CC[C@@]45C[C@@]35CC[C@]21C)C(C)(C)O obsvalue="1 to 5 µM"

* * *

- Test system: Aβ-38
- testName: Aβ-38 MSD 3-PLEX ELISA, conditioned media of 2B7 cells
- Format: cell-based
- conditionLabel: Homo sapiens; 2B7 cells, 5 hours at 37° C., 1% DMSO; read-out: Aβ 38 IC50
- Description: Assays were conducted to determine the ability of a Compound of Formula I to modulate […], […], and Aβ-38. Human (6E10) Ab 3-PLEX ELISA kits were purchased from Meso Scale Discovery Labs, 9328 Gaither Road, Gaithersburg, Md. 20877 (Catalog Number […]-3). […] Washed wells 5× with MSD wash buffer; Added 150 μL 2×MSD read buffer; Read with MSD imager. Aβ peptide levels for each peptide were calculated from the standard curve using the MSD software provided with the MSD 2400 Imager. […]
pIC50: −log10 of the molar value.
measure: pIC50

recordsmiles=CCO[C@@H]([C@H]1C[C@@H](C)[C@H]2[C@H](O1)[C@H](O)[C@@]1(C)[C@@H]3CC[C@H]4C(C)(C)[C@@H](OC(=O)NC5CN(C6CCC6)C5)CC[C@@]45C[C@@]35CC[C@]21C)C(C)(C)O obsvalue="6.00 to 6.30"
recordsmiles=CCO[C@@H]([C@H]1C[C@@H](C)[C@H]2[C@H](O1)[C@H](O)[C@@]1(C)[C@@H]3CC[C@H]4C(C)(C)[C@@H](OC(=O)N5CC(N6CCC6)C5)CC[C@@]45C[C@@]35CC[C@]21C)C(C)(C)O obsvalue="6.30 to 7.00"
recordsmiles=CCO[C@@H]([C@H]1C[C@@H](C)[C@H]2[C@H](O1)[C@H](O)[C@@]1(C)[C@@H]3CC[C@H]4C(C)(C)[C@@H](OC(=O)NCCN5CC(OC)C5)CC[C@@]45C[C@@]35CC[C@]21C)C(C)(C)O obsvalue="5.30 to 6.00"
recordsmiles=CCO[C@@H]([C@H]1C[C@@H](C)[C@H]2[C@H](O1)[C@H](O)[C@@]1(C)[C@@H]3CC[C@H]4C(C)(C)[C@@H](OC(=O)N5CCN(C6COC6)CC5)CC[C@@]45C[C@@]35CC[C@]21C)C(C)(C)O obsvalue="5.30 to 6.00"
recordsmiles=CCO[C@@H]([C@H]1C[C@@H](C)[C@H]2[C@H](O1)[C@H](O)[C@@]1(C)[C@@H]3CC[C@H]4C(C)(C)[C@@H](OC(=O)NCCN5CCN(C6COC6)CC5)CC[C@@]45C[C@@]35CC[C@]21C)C(C)(C)O obsvalue="6.30 to 7.00"
recordsmiles=CCO[C@@H]([C@H]1C[C@@H](C)[C@H]2[C@H](O1)[C@H](O)[C@@]1(C)[C@@H]3CC[C@H]4C(C)(C)[C@@H](OC(=O)N(C)C5CN(C)C5)CC[C@@]45C[C@@]35CC[C@]21C)C(C)(C)O obsvalue="6.30 to 7.00"
recordsmiles=CCO[C@@H]([C@H]1C[C@@H](C)[C@H]2[C@H](O1)[C@H](O)[C@@]1(C)[C@@H]3CC[C@H]4C(C)(C)[C@@H](OC(=O)N5CCN(C)CC5)CC[C@@]45C[C@@]35CC[C@]21C)C(C)(C)O obsvalue="6.30 to 7.00"
recordsmiles=CCO[C@@H]([C@H]1C[C@@H](C)[C@H]2[C@H](O1)[C@H](O)[C@@]1(C)[C@@H]3CC[C@H]4C(C)(C)[C@@H](OC(=O)N5CCNCC5)CC[C@@]45C[C@@]35CC[C@]21C)C(C)(C)O obsvalue="6.30 to 7.00"

* * *

- Test system: Aβ-38
- testName: Aβ-38 MSD 3-PLEX ELISA, conditioned media of 2B7 cells
- Assay type: cell-based
- conditionLabel: Homo sapiens; 2B7 cells, 5 hours at 37° C., 1% DMSO; read-out: Aβ 38 IC50
- Description: Assays were conducted to determine the ability of a Compound of Formula I to modulate […], […], and Aβ-38. Human (6E10) Ab 3-PLEX ELISA kits were purchased from Meso Scale Discovery Labs, 9328 Gaither Road, Gaithersburg, Md. 20877 (Catalog Number […]-3). […] Washed wells 5× with MSD wash buffer; Added 150 μL 2×MSD read buffer; Read with MSD imager. Aβ peptide levels for each peptide were calculated from the standard curve using the MSD software provided with the MSD 2400 Imager. […]
The reader will find reported IC50 values listed item by item below.
measure: IC50

compound=CCO[C@@H]([C@H]1C[C@@H](C)[C@H]2[C@H](O1)[C@H](O)[C@@]1(C)[C@@H]3CC[C@H]4C(C)(C)[C@@H](OC(=O)N5CC(NC)C5)CC[C@@]45C[C@@]35CC[C@]21C)C(C)(C)O tgt=Aβ-38 measure=IC50 obsvalue="0.1 to 0.5 µM"
compound=CCO[C@@H]([C@H]1C[C@@H](C)[C@H]2[C@H](O1)[C@H](O)[C@@]1(C)[C@@H]3CC[C@H]4C(C)(C)[C@@H](OC(=O)NC5CN(C6CN(C7CCC7)C6)C5)CC[C@@]45C[C@@]35CC[C@]21C)C(C)(C)O tgt=Aβ-38 measure=IC50 obsvalue="0.501 to 1 µM"
compound=CCO[C@@H]([C@H]1C[C@@H](C)[C@H]2[C@H](O1)[C@H](O)[C@@]1(C)[C@@H]3CC[C@H]4C(C)(C)[C@@H](OC(=O)NCCN5CC(F)(F)C5)CC[C@@]45C[C@@]35CC[C@]21C)C(C)(C)O tgt=Aβ-38 measure=IC50 obsvalue="0.501 to 1 µM"
compound=CCO[C@@H]([C@H]1C[C@@H](C)[C@H]2[C@H](O1)[C@H](O)[C@@]1(C)[C@@H]3CC[C@H]4C(C)(C)[C@@H](OC(=O)N5CCN(CCOC)CC5)CC[C@@]45C[C@@]35CC[C@]21C)C(C)(C)O tgt=Aβ-38 measure=IC50 obsvalue="0.501 to 1 µM"
compound=CCO[C@@H]([C@H]1C[C@@H](C)[C@H]2[C@H](O1)[C@H](O)[C@@]1(C)[C@@H]3CC[C@H]4C(C)(C)[C@@H](OC(=O)N5CC(N6CC(OC)C6)C5)CC[C@@]45C[C@@]35CC[C@]21C)C(C)(C)O tgt=Aβ-38 measure=IC50 obsvalue="0.501 to 1 µM"
compound=CCO[C@@H]([C@H]1C[C@@H](C)[C@H]2[C@H](O1)[C@H](O)[C@@]1(C)[C@@H]3CC[C@H]4C(C)(C)[C@@H](OC(=O)NCCN5CCOCC5)CC[C@@]45C[C@@]35CC[C@]21C)C(C)(C)O tgt=Aβ-38 measure=IC50 obsvalue="1 to 5 µM"
compound="CCO[C@@H]([C@H]1C[C@@H](C)[C@H]2[C@H](O1)[C@H](O)[C@@]1(C)[C@@H]3CC[C@H]4C(C)(C)[C@@H](OC(=O)N5CCNC(C(F)(F)F)C5)CC[C@@]45C[C@@]35CC[C@]21C)C(C)(C)O (some centres unmarked)" tgt=Aβ-38 measure=IC50 obsvalue="1 to 5 µM"
compound=CCO[C@@H]([C@H]1C[C@@H](C)[C@H]2[C@H](O1)[C@H](O)[C@@]1(C)[C@@H]3CC[C@H]4C(C)(C)[C@@H](OC(=O)NCCNS(=O)(=O)C(F)(F)F)CC[C@@]45C[C@@]35CC[C@]21C)C(C)(C)O tgt=Aβ-38 measure=IC50 obsvalue="1 to 5 µM"
